biological target: NAD(P)H dehydrogenase [quinone] 1 (Homo sapiens) (UniProt P15559); test: Kinetic parameter Kcat was reported against DT-diaphorase
Sequence (P15559 whole entry): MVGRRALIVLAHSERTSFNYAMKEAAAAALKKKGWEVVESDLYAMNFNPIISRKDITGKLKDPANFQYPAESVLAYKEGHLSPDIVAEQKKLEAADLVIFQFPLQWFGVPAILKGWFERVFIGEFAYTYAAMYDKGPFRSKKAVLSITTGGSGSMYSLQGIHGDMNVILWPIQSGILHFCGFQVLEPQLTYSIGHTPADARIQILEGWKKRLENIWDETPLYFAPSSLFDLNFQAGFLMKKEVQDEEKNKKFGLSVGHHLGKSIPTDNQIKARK
measurement-label: log10(k cat) (log10 of the value in s⁻¹)
Quick note: numbers are log10 of k cat, with s⁻¹ as the unit.

Example entries begin here.
1. COC1=CC(=O)c2c(cc(COP(N)(=O)N(CCBr)CCBr)n2C)C1=O (centres undefined) ... 0.20
2. COC1=CC(=O)c2c(cc(COP(N)(=O)N3CCOCC3)n2C)C1=O (centres undefined) ... 0.69
3. COC1=CC(=O)c2c(cc(COP(=O)(N(C)CCBr)N(C)CCBr)n2C)C1=O ... 0.11
4. COC1=CC(=O)c2c(cc(COP(N)(=O)N(CCCl)CCCl)n2C)C1=O (centres undefined) ... 0.41
5. COC1=CC(=O)c2c(cc(COC(C)=O)n2C)C1=O ... 1.48

Data request: What is its log10(k cat) for NAD(P)H dehydrogenase [quinone] 1 (Homo sapiens) (UniProt P15559)? Entry: `COC1=CC(=O)c2c(c(COC(C)=O)cn2C)C1=O`
Data returned: 0.60

Data request: // query: `COC1=CC(=O)c2c(c(CO)cn2C)C1=O`
Data returned: 2.13

Data request: // query: `CC1=CC(=O)c2ccccc2C1=O`
Data returned: 2.98

Data request: // query: `COC1=CC(=O)c2c(cc(CO)n2C)C1=O`
Data returned: 1.89
